# target.entity: T1, human CXCR2 (human, UniProt P25025 1-360)
# T1 construct: also called CXC chemokine receptor 2; hCXCR2
# T1 sequence: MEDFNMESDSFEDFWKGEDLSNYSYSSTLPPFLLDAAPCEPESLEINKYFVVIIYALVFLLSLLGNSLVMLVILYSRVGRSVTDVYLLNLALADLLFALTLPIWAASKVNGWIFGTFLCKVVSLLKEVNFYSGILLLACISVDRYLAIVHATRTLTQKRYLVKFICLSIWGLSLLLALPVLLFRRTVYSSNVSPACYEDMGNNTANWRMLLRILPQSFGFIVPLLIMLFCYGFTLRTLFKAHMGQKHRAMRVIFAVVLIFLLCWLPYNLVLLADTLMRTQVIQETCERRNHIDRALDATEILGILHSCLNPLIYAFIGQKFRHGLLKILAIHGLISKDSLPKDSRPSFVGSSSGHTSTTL
# test.details: flow cytometry, CXCR2-transfected Expi293F cells
outcome.measure: Fold change in binding relative to BKO-4A8 (fold)
One number for each entry, in fold.

>>> reading("BKO-4A8 variant VH Y102S (antibody, human IgG4 S228P, lambda, V domains shown, IgG4 S228P, lambda; parental light chain; also called 4A8 VH Y102S) VH: EVQLLESGGGLVQPGGSLRLSCAASGFTFSSSTMSWVRQAPGKGLEWVSAISGRGRNTYYADSVKGRFTISRDNSRNTLYLQMNSLRAEDTAVYYCAIQMGSWGQGILVTVSS VL: QSALTQPPSASGSPGQSVTISCIGTSSDVGGYNYVSWYQQHPDKAPKLMIYEVNKRPSGVPDRFSGSKSGNTASLTVSGLQAEDEADYYCSSYAGNNNFGVFGGGTKLTVLG")
1.5

Consider now this further binder.
Query: For the binder shown here, BKO-4A8 variant VH M34Q (antibody, human IgG4 S228P, lambda, V domains shown, IgG4 S228P, lambda; parental light chain; also called 4A8 VH M34Q) VH: EVQLLESGGGLVQPGGSLRLSCAASGFTFSSSTQSWVRQAPGKGLEWVSAISGRGRNTYYADSVKGRFTISRDNSRNTLYLQMNSLRAEDTAVYYCAIQMGYWGQGILVTVSS VL: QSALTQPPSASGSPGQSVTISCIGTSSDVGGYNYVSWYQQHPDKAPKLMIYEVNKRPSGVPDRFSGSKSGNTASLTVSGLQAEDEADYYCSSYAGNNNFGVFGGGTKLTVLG , give the reported Fold change in binding relative to BKO-4A8.
Response: 1
